B1: library; a variant is named by its letters at N, in order (parent)
chain: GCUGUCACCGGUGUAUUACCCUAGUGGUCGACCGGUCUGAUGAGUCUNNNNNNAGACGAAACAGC

- Variants of: B1
- Measurement Notes: normalized RNA/DNA level with ligand (relative to sTRSVctl = 100) (log10 (% of sTRSVctl)); ligand: hypoxanthine (xanthine aptamer); higher = less ribozyme self-cleavage, higher mRNA level
- Assay Setup: ligand concentration (+) RNA-Seq: 5 mM, HEK293T, reporter: mCherry (pCS4076), ligand present: yes
Measured Attribute: normalized RNA/DNA level with ligand (log10)
Returns: the value as a bare number; no unit string appended.

Answered cases to consult:
[[record]]
mutation_label = "CGUGCA"
endpoint_result = 1.93

[[record]]
mutation_label = "UCUGGG"
endpoint_result = 1.97


## Input # input variant: UGAUAC ; wanted: its normalized RNA/DNA level with ligand (log10)
## Output 1.93

## Input # input variant: CGUUCA ; wanted: its normalized RNA/DNA level with ligand (log10)
## Output 1.97

## Input # input variant: CCCUAU ; wanted: its normalized RNA/DNA level with ligand (log10)
## Output 1.97

## Input # input variant: UCAGAC ; wanted: its normalized RNA/DNA level with ligand (log10)
## Output 1.96

## Input # input variant: AGUCGC ; wanted: its normalized RNA/DNA level with ligand (log10)
## Output 1.94

## Input # input variant: CAGGAC ; wanted: its normalized RNA/DNA level with ligand (log10)
## Output 1.88

## Input # input variant: UUACUC ; wanted: its normalized RNA/DNA level with ligand (log10)
## Output 1.99

## Input # input variant: CCGCAA ; wanted: its normalized RNA/DNA level with ligand (log10)
## Output 1.95
